# System: nasopharyngeal carcinoma (SUNE1)
# test description: MTT cytotoxicity assay, SUNE1
# Format: cell-based
# condition label: 72 h treatment
test readout: pIC50
Just the number, please; pIC50 means minus log10 of the concentration in mol/L.

// worked examples, pIC50 included
Observed pIC50 on nasopharyngeal carcinoma (SUNE1), entry Cc1cccc(C)c1[N+]#[C][Pt-2]12[c]3ccccc3-c3cccc([n+]31)-c1cc[nH][n+]12.O=S(=O)(O)C(F)(F)F (stereo not drawn) , equals 5.55

Observed pIC50 on nasopharyngeal carcinoma (SUNE1), entry O=S(=O)(O)C(F)(F)F.[C](#[N+]c1ccc2ccccc2c1)[Pt-2]12[c]3ccccc3-c3cccc([n+]31)-c1cc[nH][n+]12 (stereo not drawn) , equals 5.10

Observed pIC50 on nasopharyngeal carcinoma (SUNE1), entry COCCOCCOc1ccc([N+]#[C][Pt-2]23[c]4ccccc4-c4cccc([n+]42)-c2cc[nH][n+]23)cc1.O=S(=O)(O)C(F)(F)F (stereo not drawn) , equals 4.91

Next:
Observed pIC50 on nasopharyngeal carcinoma (SUNE1), entry COc1ccc([N+]#[C][Pt-2]23[c]4ccccc4-c4cccc([n+]42)-c2cc[nH][n+]23)cc1.O=S(=O)(O)C(F)(F)F (stereo not drawn) , equals 5.41

Observed pIC50 on nasopharyngeal carcinoma (SUNE1), entry Cc1cccc(C)c1[N+]#[C][Pt-2]12[c]3ccccc3-c3cccc([n+]31)-c1cc[nH][n+]12.[Cl-] (stereo not drawn) [Complex 1a, [Pt(C^N^N^pyr)(C?NR^1)]Cl] , equals 5.46

Observed pIC50 on nasopharyngeal carcinoma (SUNE1), entry CCCC[N+]#[C][Pt-2]12[c]3ccccc3-c3cccc([n+]31)-c1cc[nH][n+]12.[Cl-] (stereo not drawn) , equals 5.36
